# experimental_protocol: In vivo PK study in cynomolgus monkeys
# assay_setup: cynomolgus monkey, plasma; male cynomolgus monkeys, single administration
measured_parameter: half-life (h)
Give bare numbers, in h.

Give the measured half-life of Cc1cccc(CN2C(=O)c3nc(-c4nc(Nc5ccnn5C)ncc4C)sc3C2(C)C)n1 [WX001] .
2

====

# experimental_protocol: In vivo PK study in cynomolgus monkeys
# assay_setup: cynomolgus monkey, plasma, iv; male cynomolgus monkeys, 1 mg/kg intravenously
measured_parameter: clearance (mL/min/kg)
Answers are plain numbers, in mL/min/kg.

Give the measured clearance of Cc1cccc(CN2C(=O)c3nc(-c4nc(Nc5ccnn5C)ncc4C)sc3C2(C)C)n1 [WX001] .
7.9

====

# experimental_protocol: Solubility study (HPLC-UV, 24 h shaking)
# Assay type: physicochemical
# assay_setup: 25 °C, aqueous buffer, kinetic from dmso stock, 50 mM phosphate buffer pH 6.5, 25±2° C., 2% DMSO, max 200 μM, read-out: Solubility pH = 6.5
measured_parameter: solubility at 24 h (µM)
Give bare numbers, in µM.

Give the measured solubility at 24 h of Cc1cccc(CN2C(=O)c3nc(-c4nc(Nc5ccnn5C)ncc4C)sc3C2(C)C)n1 .
6.2

====

# experimental_protocol: Solubility study (HPLC-UV, 24 h shaking)
# Type: physicochemical
# assay_setup: 25 °C, aqueous buffer, kinetic from dmso stock, 50 mM phosphate buffer pH 2.0, 25±2° C., 2% DMSO, max 200 μM, read-out: Solubility pH = 2.0
measured_parameter: solubility at 24 h

Give the measured solubility at 24 h of Cc1cccc(CN2C(=O)c3nc(-c4nc(Nc5ccnn5C)ncc4C)sc3C2(C)C)n1 .
> 200 µM

====

# experimental_protocol: In vivo PK study in mice
# assay_setup: mouse, plasma, iv; female BALB/c mice, 1 mg/kg intravenously
measured_parameter: clearance (mL/min/kg)
Give bare numbers, in mL/min/kg.

Give the measured clearance of Cc1cccc(CN2C(=O)c3nc(-c4nc(Nc5ccnn5C)ncc4C)sc3C2(C)C)n1 [WX001] .
27.5

====

# experimental_protocol: In vivo PK study in beagle dogs
# assay_setup: dog, plasma, iv; male beagle dogs, 1 mg/kg intravenously; read-out: Vdss
measured_parameter: Vd (L/kg)
Give bare numbers, in L/kg.

Give the measured Vd of Cc1cccc(CN2C(=O)c3nc(-c4nc(Nc5ccnn5C)ncc4C)sc3C2(C)C)n1 .
1.94

====

# experimental_protocol: In vivo PK study in mice
# assay_setup: mouse, po; female BALB/c mice, 3 mg/kg orally, plasma
# Source text: Female BALB/c mice were used as assay animals to determine the blood concentration of the compound and evaluate the pharmacokinetic behavior after a single administration. Four healthy adult female BALB/c mice were selected, wherein 2 mice were in an intravenous injection group and 2 mice were in an oral group. The vehicle in the intravenous injection group was 5% DMSO+95% (20% HP-β-CD). […] The clear solution was filtered by a microporous membrane, and then ready for use. […]
measured_parameter: Cmax (nM)
One number for each entry, in nM.

Give the measured Cmax of Cc1cccc(CN2C(=O)c3nc(-c4nc(Nc5ccnn5C)ncc4C)sc3C2(C)C)n1 .
2120

====

# experimental_protocol: In vivo PK study in SD rats
# assay_setup: rat, plasma, iv; male SD rats, 1 mg/kg intravenously
measured_parameter: clearance (mL/min/kg)
One number for each entry, in mL/min/kg.

Give the measured clearance of Cc1cccc(CN2C(=O)c3nc(-c4nc(Nc5ccnn5C)ncc4C)sc3C2(C)C)n1 .
24.8
